Molecular target: FAAH (Rattus norvegicus)
Construct: Preparation of Rat Brain Membranes Preparations (FAAH Enzyme Solution); from tissue; host or cells: rat cerebrum (brain membrane preparation)
Test: Determination of FAAH inhibitory activity in rat (rat brain membrane preparations, [3H]-anandamide hydrolysis)
Type: biochemical
Details: rat brain membrane preparations; read-out: FAAH Inhibition IC50
Method: Determination of FAAH Inhibitory Activity in Rat The preparation of rat brain membranes preparations and the determination of FAAH inhibitory activity were carried out according to the Jonsson et al. method [Br. J. Pharmacol., 133, 1263 (2001)]. (1) Preparation of Rat Brain Membranes Preparations (FAAH Enzyme Solution) The cerebrum was extracted from rats and was freeze-stored at −80° C. […]
REPORTED_ENDPOINT: pIC50
The quantity pIC50 is defined as the negative base-10 logarithm of the molar concentration.

{"COMPOUND": "CCn1c(=O)n(C(=O)N(C)C)c2nc(CCc3ccccc3F)ncc21 [Example 643]", "ASSAY_SYSTEM": "FAAH (Rattus norvegicus)", "pIC50": 7.80}
{"COMPOUND": "CCn1c(=O)n(C(=O)N2CCC2)c2nc(CCc3cccc(F)c3)ncc21 [Example 650]", "ASSAY_SYSTEM": "FAAH (Rattus norvegicus)", "pIC50": 8.00}
{"COMPOUND": "Cn1c(=O)n(C(=O)N2CCC2)c2nc(CCc3cccc(OCC(F)(F)F)c3)ncc21 [Example 612]", "ASSAY_SYSTEM": "FAAH (Rattus norvegicus)", "pIC50": 8.05}
{"COMPOUND": "CN(C)C(=O)n1c(=O)n(C)c2cnc(Cc3cccc(C(F)(F)F)c3)nc21 [Example 654]", "ASSAY_SYSTEM": "FAAH (Rattus norvegicus)", "pIC50": 7.96}
{"COMPOUND": "CCOc1cccc(CCc2ncc3c(n2)n(C(=O)N2CCC2)c(=O)n3C)c1 [compound 604]", "ASSAY_SYSTEM": "FAAH (Rattus norvegicus)", "pIC50": 7.82}
{"COMPOUND": "CCCn1c(=O)n(C(=O)N2CC(c3cccc(F)c3)C2)c2cnc(COC)nc21 [Example 660]", "ASSAY_SYSTEM": "FAAH (Rattus norvegicus)", "pIC50": 8.00}
{"COMPOUND": "CCCc1ncc2c(n1)n(C(=O)N1CC(c3ccccc3)C1)c(=O)n2C [Example 637]", "ASSAY_SYSTEM": "FAAH (Rattus norvegicus)", "pIC50": 8.15}
{"COMPOUND": "CCCc1ncc2c(n1)n(C)c(=O)n2C(=O)N1CC(c2cccc(F)c2)C1 [compound 625]", "ASSAY_SYSTEM": "FAAH (Rattus norvegicus)", "pIC50": 8.15}

Entry CCCn1c(=O)n(C(=O)N2CC(c3ccccc3)C2)c2cnc(COC)nc21 [Example 658] , pIC50 reported as 7.82

Entry Cn1c(=O)n(C(=O)N2CCC2)c2nc(CCCC3CCCCC3)ncc21 [Example 619] , pIC50 reported as 8.05

Entry CN(C)C(=O)n1c(=O)n(C)c2cnc(CCC3CCCCC3)nc21 [Example 615] , pIC50 reported as 8.00

Entry CCCc1ncc2c(n1)n(C)c(=O)n2C(=O)N1CC(c2ccccc2)C1 [compound 626] , pIC50 reported as 8.40

Entry CN(C)C(=O)n1c(=O)n(C)c2cnc(CCOc3cccc(Cl)c3)nc21 [Example 641] , pIC50 reported as 8.10

Entry Cn1c(=O)n(C(=O)N2CC(c3cccc(F)c3)C2)c2nc(C3CC3)ncc21 [Example 632] , pIC50 reported as 7.51

###

Target: FAAH (Rattus norvegicus)
Construct: Preparation of Rat Brain Membranes Preparations (FAAH Enzyme Solution); from tissue; host or cells: rat cerebrum (brain membrane preparation)
Assay: Determination of FAAH inhibitory activity in rat (rat brain membrane preparations, [3H]-anandamide hydrolysis)
Assay type: biochemical
Details: rat brain membrane preparations; 100 nM test substance; read-out: FAAH Inhibition, Inhibition Rate at 100 nM
Listing of recorded inhibition at 0.1 µM by entry.
Lab book: enter the figure in %, no units written.

Example cases with answers are listed next.
{"COMPOUND": "CN(C)C(=O)n1c(=O)n(C)c2cnc(CCc3cc(F)c(F)c(F)c3)nc21 [compound 504]", "ASSAY_SYSTEM": "FAAH (Rattus norvegicus)", "DISPLAY_UNIT": "%", "inhibition at 0.1 µM": 100}
{"COMPOUND": "Cn1c(=O)n(C(=O)N2CCCC2)c2nc(-c3ccc(C(F)(F)F)cc3)ncc21 [Example 235]", "ASSAY_SYSTEM": "FAAH (Rattus norvegicus)", "DISPLAY_UNIT": "%", "inhibition at 0.1 µM": 98}
{"COMPOUND": "COCc1ncc2c(n1)n(C)c(=O)n2C(=O)N1CC(c2ccccc2F)C1 [Example 441]", "ASSAY_SYSTEM": "FAAH (Rattus norvegicus)", "DISPLAY_UNIT": "%", "inhibition at 0.1 µM": 74}
{"COMPOUND": "COc1cccc(CN(C)C(=O)n2c(=O)n(C)c3nc(-c4cccc(OC)c4)ncc32)c1 [Example 73]", "ASSAY_SYSTEM": "FAAH (Rattus norvegicus)", "DISPLAY_UNIT": "%", "inhibition at 0.1 µM": 89}

The reported FAAH (Rattus norvegicus) inhibition at 0.1 µM of COc1cccc(-c2ncc3c(n2)n(C)c(=O)n3C(=O)N2CCC(/C=C/c3ccc(Cl)cc3)CC2)c1 [Example 112] is 103

The reported FAAH (Rattus norvegicus) inhibition at 0.1 µM of Cn1c(=O)n(C(=O)N2CCC2)c2nc(COc3cccc(Cl)c3)ncc21 [Example 419] is 81

The reported FAAH (Rattus norvegicus) inhibition at 0.1 µM of Cn1c(=O)n(C(=O)N2CCCC2)c2nc(Cc3ccc(F)cc3F)ncc21 [Example 296] is 92

The reported FAAH (Rattus norvegicus) inhibition at 0.1 µM of Cn1c(=O)n(C(=O)N2CCCC2)c2nc(-c3ccc(OC(F)(F)F)cc3)ncc21 [Example 237] is 98

###

Listing of recorded inhibition at 0.1 µM by entry.
Target: FAAH (Rattus norvegicus)
Construct: Preparation of Rat Brain Membranes Preparations (FAAH Enzyme Solution); from tissue; host or cells: rat cerebrum (brain membrane preparation)
Test: Determination of FAAH inhibitory activity in rat (rat brain membrane preparations, [3H]-anandamide hydrolysis)
Assay type: biochemical
Conditions: rat brain membrane preparations; 100 nM test substance; read-out: FAAH Inhibition, Inhibition Rate at 100 nM
Lab book: enter the figure in %, no units written.

Example cases with answers are listed next.
{"SMI": "COc1ccc(Cc2ncc3c(n2)n(C)c(=O)n3C(=O)N2CCC2)cc1", "DISPLAY_UNIT": "%", "inhibition at 0.1 µM": 89}
{"SMI": "COCc1ncc2c(n1)n(C)c(=O)n2C(=O)N1CC(c2ccccc2Cl)C1", "DISPLAY_UNIT": "%", "inhibition at 0.1 µM": 90}

Now, please, on to the next molecule.
Entry Cc1cccc(-c2ncc3c(n2)n(C(=O)N(C)C)c(=O)n3C)c1 , inhibition at 0.1 µM reported as 55

###

Listing of recorded pIC50 by entry.
Target: FAAH (Rattus norvegicus, UniProt P97612)
Construct: Preparation of Rat Brain Membranes Preparations (FAAH Enzyme Solution); from tissue; host or cells: rat cerebrum (brain membrane preparation)
Sequence (P97612 whole entry): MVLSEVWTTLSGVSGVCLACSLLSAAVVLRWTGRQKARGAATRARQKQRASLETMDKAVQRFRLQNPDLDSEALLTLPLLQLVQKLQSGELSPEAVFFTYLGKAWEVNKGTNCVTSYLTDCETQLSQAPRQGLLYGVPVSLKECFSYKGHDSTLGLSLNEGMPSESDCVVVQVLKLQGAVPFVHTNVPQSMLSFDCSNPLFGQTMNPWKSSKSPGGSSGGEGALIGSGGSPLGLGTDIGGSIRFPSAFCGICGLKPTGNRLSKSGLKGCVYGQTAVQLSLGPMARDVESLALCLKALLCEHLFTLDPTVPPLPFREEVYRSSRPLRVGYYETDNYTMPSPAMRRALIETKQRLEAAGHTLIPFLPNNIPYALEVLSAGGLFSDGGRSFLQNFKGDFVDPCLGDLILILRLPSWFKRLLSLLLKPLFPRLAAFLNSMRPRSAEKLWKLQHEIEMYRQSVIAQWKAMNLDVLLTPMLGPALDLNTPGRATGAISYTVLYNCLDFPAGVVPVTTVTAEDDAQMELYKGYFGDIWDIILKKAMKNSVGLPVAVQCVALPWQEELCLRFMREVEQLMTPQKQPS
Experiment: Determination of FAAH inhibitory activity in rat (rat brain membrane preparations, [3H]-anandamide hydrolysis)
Type: biochemical
Conditions: rat brain membrane preparations; test substance 0.1 nM to 1 μM; read-out: FAAH Inhibition IC50
The quantity pIC50 is defined as the negative base-10 logarithm of the molar concentration.

{"SMI": "Cn1c(=O)n(C(=O)N2CCC2)c2nc(-c3cccc(C(F)(F)F)c3)ncc21", "READOUT_NUMBER": 7.96}

Entry COc1cccc(-c2ncc3c(n2)n(C)c(=O)n3C(=O)N2CCN(C3CCCC3)CC2)c1 , pIC50 reported as 7.40

Entry CCc1cccc(OCc2ncc3c(n2)n(C(=O)N2CCC2)c(=O)n3C)c1 , pIC50 reported as 7.46

Entry CN(C)C(=O)n1c(=O)n(C)c2cnc(COc3cccc(C(F)(F)F)c3)nc21 , pIC50 reported as 7.66

###

Listing of recorded IC50 by entry.
Target: FAAH (Rattus norvegicus)
Construct: Preparation of Rat Brain Membranes Preparations (FAAH Enzyme Solution); from tissue; host or cells: rat cerebrum (brain membrane preparation)
Assay: Determination of FAAH inhibitory activity in rat (rat brain membrane preparations, [3H]-anandamide hydrolysis)
Format: biochemical
Settings: rat brain membrane preparations; test substance 0.1 nM to 1 μM; read-out: FAAH Inhibition IC50
Phrase the answer as number then unit, nothing more needed.

{"SMI": "CN(C)C(=O)n1c(=O)n(C)c2cnc(-c3cccc(OCc4ccccc4)c3)nc21", "ASSAY_SYSTEM": "FAAH (Rattus norvegicus)", "RESULT": "109 nM"}
{"SMI": "CN(Cc1ccccc1)C(=O)n1c(=O)n(C)c2nc(-c3ccccc3)ncc21", "ASSAY_SYSTEM": "FAAH (Rattus norvegicus)", "RESULT": "23 nM"}
{"SMI": "Cn1c(=O)n(C(=O)N2CCC2)c2nc(CCc3ccc(Cl)cc3)ncc21", "ASSAY_SYSTEM": "FAAH (Rattus norvegicus)", "RESULT": "10 nM"}
{"SMI": "Cn1c(=O)n(C(=O)N2CCCC2)c2cnc(Cc3cc(F)ccc3F)nc21", "ASSAY_SYSTEM": "FAAH (Rattus norvegicus)", "RESULT": "23 nM"}

The reported FAAH (Rattus norvegicus) IC50 of COc1cccc(-c2ncc3c(n2)n(C)c(=O)n3C(=O)N2CCN(Cc3ccc(Cl)cc3)CC2)c1 is 22 nM
